# Test system: HepG2-A16-CD81EGFP cells
# experimental-context: human, 48 h, 3 µM
metric-name: HepG2 viability signal, 3 uM, repeat 2 (%)
Supply the numeric figure in %, leaving out any unit text.

Answered cases to consult:
O=C(Nc1ccccc1)OC[C@H]1C[C@@H]2CCN1C[C@@H]2c1cc(C2CCCC2)nc(-c2ccncc2)n1 [NCGC00421344-01]; 105.28
CCC(CC)c1cc([C@H]2CN3CC[C@H]2C[C@@H]3CN[S+](=O)([O-])c2cccs2)nc(-c2ccncc2)n1 [NCGC00396883-01]; 99.98
COc1cccc([C@@H]2CCN(Cc3[nH]c4ccccc4c3C)C[C@H]2O)c1 [NCGC00443267-01]; 93.99
COc1ccc(-c2cc([C@H]3CN4CC[C@H]3C[C@@H]4CN[S+](=O)([O-])c3ccc(Cl)cc3)n(C)n2)cc1OC [NCGC00399828-01]; 102.23
CCC(CC)c1cc([C@H]2CN3CC[C@H]2C[C@@H]3CN[S+](=O)([O-])c2ccccc2C#N)nc(-c2ccncc2)n1 [NCGC00421343-01]; 104.55
COc1cc2c(cc1Oc1cccc(N(C)C)c1)NC(=O)C21CCN(c2cnccn2)CC1 [NCGC00416778-01]; 87.34

Could you now look at the following molecule, please?
Q: Could you share which HepG2 viability signal, 3 uM, repeat 2 value was measured for COc1cc2c(cc1OCc1ccccc1)N(C(=O)c1cc3ccccc3[nH]1)CC21CCN(C)CC1 [NCGC00419851-01] ?
Result: 102.28
